Each recorded value in this set is attributed to patent US20260028403A1.

Tgt: huCD28 (human, UniProt P10747 19-152, limits assumed)
Method notes: SPR, OAA format
Measured quantity: koff (s⁻¹)
All answers are understood in s⁻¹, so give the number only.

// solved cases for koff follow
Binder	koff, s⁻¹
v37898 (antibody, V domains shown, OAA format as v34891) VH: QVQLQESGPGLVKPSETLSLTCAVSGFSLTSYGVHWIRQPPGKGLEWLGVIWPGGGTNFNSALMSRLTISEDTSKNQVSLKLSSVTAADTAVYYCARDRAYGNYLYAMDYWGQGTLVTVSS VL: DIQMTQSPSSLSASVGDRVTITCRASESVEYYVTSLLNWYQQKPGKAPKLLIYAASNVDSGVPSRFSGSGSGTDFTLTISSLQPEDIATYYCQQSRKVPFTFGGGTKVEIK	0.00573
v37888 (antibody, V domains shown, OAA format as v34891; also called huTN228 N1066Q (VL) OAA) VH: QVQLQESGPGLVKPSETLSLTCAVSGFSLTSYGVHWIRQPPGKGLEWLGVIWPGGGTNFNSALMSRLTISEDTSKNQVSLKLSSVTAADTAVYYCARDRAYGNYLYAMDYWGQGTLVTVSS VL: DIQMTQSPSSLSASVGDRVTITCRASESVEYYVTSLMQWYQQKPGKAPKLLIYAASQVDSGVPSRFSGSGSGTDFTLTISSLQPEDIATYYCQQSRKVPFTFGGGTKVEIK	0.00319

Now turn to the next binder.
Lookup: Reported koff for v37883 (antibody, V domains shown, OAA format as v34891; also called huTN228 N1111AQ (VH) OAA) VH: QVQLQESGPGLVKPSETLSLTCAVSGFSLTSYGVHWIRQPPGKGLEWLGVIWPGGGTNFNSALMSRLTISEDTSKNQVSLKLSSVTAADTAVYYCARDRAYGQYLYAMDYWGQGTLVTVSS VL: DIQMTQSPSSLSASVGDRVTITCRASESVEYYVTSLMQWYQQKPGKAPKLLIYAASNVDSGVPSRFSGSGSGTDFTLTISSLQPEDIATYYCQQSRKVPFTFGGGTKVEIK : what is it?
Found: 0.029
